Data credit: patent US11053204B2

Tested on: lambsquarters (Chenopodium album)
run.description: Test C preemergence, plant response rating
Assay type: in vivo
assay.context: Preemergence; 62 g ai/ha; scale 0 to 100
Rule for this label: TRUE means Plant response rating, Lambsquarters is less than 60; FALSE means Plant response rating, Lambsquarters is at least 60.

Example cases with answers are listed next.
molecule	class.assignment
FC(F)(F)CCCc1c(Br)cccc1Oc1ncc(Cl)cn1	TRUE
CCCCC(=O)c1c(Br)cccc1Oc1ncc(Cl)cn1	FALSE
FC(F)(F)CCCCc1c(Br)cccc1Oc1ncc(Cl)cn1	TRUE
N#Cc1cccc(Oc2ncc(Cl)cn2)c1C(=O)OCCC(F)(F)F	TRUE
O=C(CCCC(F)(F)F)c1c(Cl)cccc1Oc1ncc(Cl)cn1	FALSE

**Q:** Bench note: check whether N#CC(CCCC(F)(F)F)c1ccccc1Oc1ncc(Cl)cn1 (centres unmarked) shows Plant response rating, Lambsquarters below 60
**A:** FALSE

**Q:** Subsequent entry: O=C(CCC(F)(F)F)c1c(Br)cccc1Oc1ncc(Cl)cn1
**A:** FALSE

* * *

System: johnsongrass (Sorghum halepense)
run.description: Test C preemergence, plant response rating
Format: in vivo
assay.context: 125 g ai/ha, scale of 0 to 100
endpoint: Plant response rating, Johnsongrass
Give bare numbers.

compound	endpoint	meas.value
N#Cc1cccc(Oc2ncc(Cl)cn2)c1COCCC(F)(F)F	Plant response rating, Johnsongrass	60
O=C(OCCC(F)(F)F)c1c(Br)cccc1Oc1ncc(Br)cn1	Plant response rating, Johnsongrass	35
CCCC(=O)c1c(Br)cccc1Oc1ncc(Cl)cn1	Plant response rating, Johnsongrass	70
N#Cc1cccc(Oc2ncc(Cl)cn2)c1CCCCC(F)(F)F	Plant response rating, Johnsongrass	95
FC(F)(F)CCCc1c(Br)cccc1Oc1ncc(Cl)cn1	Plant response rating, Johnsongrass	60
N#CC(CCCC(F)(F)F)c1ccccc1Oc1ncc(Cl)cn1 (stereo not drawn)	Plant response rating, Johnsongrass	70

For each of the compounds below, note its Plant response rating, Johnsongrass.
1. N#Cc1cccc(Oc2ncc(Cl)cn2)c1C(=O)OCCC(F)(F)F
2. O=C(CCCC(F)(F)F)c1c(Cl)cccc1Oc1ncc(Cl)cn1
3. O=C(OCCC(F)(F)F)c1c(Br)cccc1Oc1ncc(Cl)cn1

**A:**
1: 15; 2: 80; 3: 98

* * *

Tested on: giant foxtail (Setaria faberii)
run.description: Test A preemergence, visual injury rating
Type: in vivo
assay.context: 125 g ai/ha, 0 to 100 scale (0 no effect, 100 complete control)
I would appreciate it if you labelled entries TRUE when Foxtail, Giant plant response rating is 70 or higher, otherwise FALSE.

Example cases with answers are listed next.
molecule	class.assignment
CN(CCC(F)(F)F)C(=O)c1c(Br)cccc1Oc1ncc(Cl)cn1 [Compound 19]	FALSE
N#CCOC(=O)c1c(Br)cccc1Oc1ncc(Cl)cn1 [Compound 40]	FALSE
O=C(OCC(F)(F)C(F)(F)F)c1c(F)cccc1Oc1ncc(Br)cn1 [Compound 4]	FALSE
O=C(SCCC(F)(F)F)c1c(Br)cccc1Oc1ncc(Cl)cn1 [Compound 71]	TRUE
N#Cc1ccc(Oc2ncc(Cl)cn2)c(C(=O)OCCC(F)(F)F)c1 [Compound 64]	FALSE
O=C(OC1CCC1)c1c(Br)cccc1Oc1ncc(Cl)cn1 [Compound 78]	TRUE
CCC(C)OC(=O)c1c(Br)cccc1Oc1ncc(Cl)cn1 (stereo not shown) [Compound 84]	FALSE
O=C(OC1CCCC1)c1c(Br)cccc1Oc1ncc(Cl)cn1 [Compound 44]	FALSE

**Q:** Quick check: does O=C(OC(CCl)CCl)c1c(Br)cccc1Oc1ncc(Cl)cn1 [Compound 36] have Foxtail, Giant plant response rating greater than or equal to 70?
**A:** FALSE

**Q:** Subsequent entry: N#Cc1cccc(Oc2ncc(Cl)cn2)c1COCCCC(F)(F)F [Compound 81]
**A:** TRUE

* * *

Please go through the items and note down their Foxtail, Giant plant response rating (0 to 100 scale).
Test system: giant foxtail (Setaria faberii)
run.description: Test A postemergence, visual injury rating
Format: in vivo
assay.context: 500 g ai/ha, 0 is no effect, 100 is complete control
Numbers only.

molecule	target.of.assay	meas.value
C=CCSC(=O)c1c(Br)cccc1Oc1ncc(Cl)cn1 [Compound 91]	giant foxtail (Setaria faberii)	100
O=C(OCCC(F)(F)F)c1c(F)cccc1Oc1ncc(Br)cn1 [Compound 41]	giant foxtail (Setaria faberii)	0

**Q:** Which Foxtail, Giant plant response rating (0 to 100 scale) reading was recorded for the molecule O=C(OCCCC(F)(F)F)c1c(Oc2ncc(Cl)cn2)cccc1C(F)(F)F [Compound 65] ?
**A:** 90

* * *

Please go through the items and note down their Soybean plant response rating.
System: soybean (Glycine max)
run.description: Test C postemergence, plant response rating
Type: in vivo
assay.context: 125 g ai/ha, scale 0 to 100 (0 no effect, 100 complete control)
Numbers only.

Recorded Soybean plant response rating, per entry:
smiles	Soybean plant response rating
CCCCC(=O)c1c(Oc2ncc(Cl)cn2)cccc1C(F)(F)F	95
FC(F)(F)CCCCc1c(Cl)cccc1Oc1ncc(Cl)cn1	40
N#Cc1cccc(Oc2ncc(Cl)cn2)c1CCCC(F)(F)F	70

Lab note: next compound to report on.
**Q:** Missing value: Soybean plant response rating, soybean (Glycine max), entry O=C(OCCC(F)(F)F)c1c(Br)cccc1Oc1ncc(Br)cn1 . Fill in?
**A:** 55

* * *

Tested on: pigweed (Amaranthus retroflexus)
run.description: Test A postemergence, visual injury rating
Assay type: in vivo
assay.context: 500 g ai/ha, 0 is no effect, 100 is complete control
Description: […]
Please go through the items and note down their Pigweed plant response rating (0 to 100 scale).

compound	meas.value
O=C(OC1CCC1)c1c(Br)cccc1Oc1ncc(Cl)cn1 [Compound 78]	90
CC(C)=CCOC(=O)c1c(Br)cccc1Oc1ncc(Cl)cn1 [Compound 11]	60
N#Cc1cnc(Oc2cccc(Br)c2C(=O)OCC(F)(F)F)nc1 [Compound 31]	0

For each of the compounds below, note its Pigweed plant response rating (0 to 100 scale).
1. O=C(OCCC(F)(F)F)c1c(F)cccc1Oc1ncc(Br)cn1 [Compound 41]
2. O=Cc1c(Cl)cccc1Oc1ncc(Cl)cn1 [Compound 139]
3. O=C(OCC1CCC1)c1c(Br)cccc1Oc1ncc(Cl)cn1 [Compound 8]

**A:**
90
0
90

* * *

Test system: Italian ryegrass (Lolium multiflorum)
run.description: Test A postemergence, visual injury rating
Type: in vivo
assay.context: 500 g ai/ha, 0 is no effect, 100 is complete control
Please go through the items and note down their Ryegrass, Italian plant response rating (0 to 100 scale).
Numbers only.

smiles	meas.value
N#CCOC(=O)c1c(C#N)cccc1Oc1ncc(Cl)cn1	0
O=C(OCCC(F)(F)F)c1c(Br)cccc1Oc1ncc(Br)cn1	80
N#Cc1cnc(Oc2cccc(Br)c2C(=O)OCC(F)(F)F)nc1	0
O=C(OCCC(F)(F)F)c1c(F)cccc1Oc1ncc(Br)cn1	0
C=CCSC(=O)c1c(Br)cccc1Oc1ncc(Cl)cn1	30

For each of the compounds below, note its Ryegrass, Italian plant response rating (0 to 100 scale).
1. O=C(OCCC(F)(F)F)c1ccccc1Oc1ncc(Cl)cn1
2. O=C(OCC(F)(F)F)c1c(F)cccc1Oc1ncc(Cl)cn1

**A:**
[0, 0]

* * *

Tested on: giant foxtail (Setaria faberii)
run.description: Test A postemergence, visual injury rating
Format: in vivo
assay.context: 125 g ai/ha, 0 to 100 scale, 0 is no effect, 100 is complete control, approximately 10 days
Rule for this label: criterion met means Foxtail, Giant plant response rating is less than 10; criterion not met means Foxtail, Giant plant response rating is at least 10.

Example cases with answers are listed next.
compound	class.assignment
CCCCC(=O)c1c(Oc2ncc(Cl)cn2)cccc1C(F)(F)F [Compound 130]	criterion not met
CCON=C(C)c1c(Br)cccc1Oc1ncc(Cl)cn1 [Compound 95]	criterion not met
CC(C)Oc1cccc(Oc2ncc(Cl)cn2)c1C(=O)OCCC(F)(F)F [Compound 115]	criterion met
CCCCC(C#N)c1c(Br)cccc1Oc1ncc(Cl)cn1 (stereo not shown) [Compound 114]	criterion not met
N#Cc1cccc(Oc2ncc(Cl)cn2)c1COCC(F)(F)C(F)(F)F [Compound 132]	criterion not met

**Q:** Bench note: check whether O=Cc1c(Cl)cccc1Oc1ncc(Cl)cn1 [Compound 139] shows Foxtail, Giant plant response rating below 10
**A:** criterion met

* * *

Test system: pigweed (Amaranthus retroflexus)
run.description: Test A postemergence, visual injury rating
Assay type: in vivo
assay.context: 125 g ai/ha, 0 to 100 scale, 0 is no effect, 100 is complete control, approximately 10 days
From the text: […]
Please go through the items and note down their Pigweed plant response rating.

Recorded Pigweed plant response rating, per entry:
compound	target.of.assay	Pigweed plant response rating
CCc1cccc(Oc2ncc(Cl)cn2)c1CCCCC(F)(F)F	pigweed (Amaranthus retroflexus)	80
N#Cc1cccc(Oc2ncc(Cl)cn2)c1CCCCC(F)(F)F	pigweed (Amaranthus retroflexus)	100

For each of the compounds below, note its Pigweed plant response rating.
1. N#Cc1cccc(Oc2ncc(Cl)cn2)c1CCCC(F)(F)F
2. CCCCc1c(C#N)cccc1Oc1ncc(Cl)cn1

**A:**
[100, 40]

For each of the compounds below, note its Pigweed plant response rating.
1. CCCCC(=O)c1c(Oc2ncc(Cl)cn2)cccc1C(F)(F)F
2. N#Cc1cccc(Oc2ncc(Cl)cn2)c1COCCC(F)(F)F
3. Cc1cccc(Oc2ncc(Cl)cn2)c1C(=O)OCCC(F)(F)F
4. CC(=NOCCC(F)(F)F)c1c(Br)cccc1Oc1ncc(Cl)cn1
5. CC(=NOC(C)C)c1c(Br)cccc1Oc1ncc(Cl)cn1

**A:**
1. 100
2. 100
3. 40
4. 90
5. 30
